- Tested on: A875 (Human melanoma cell line)
- measurement protocol: MTT in vitro cytotoxicity, A875
- run conditions: A875, 72 h, read-out: In vitro cytotoxicity IC50
observable: IC50 (µM)
Give the value in µM but do not write µM after it.

Consider the reported IC50 for these compounds:
compound	units text	number
C[C@]12CC[C@H](O)CC1CC[C@@H]1[C@@H]2CC[C@]2(C)C(=NN=C3C(=O)Nc4ccc(Br)cc43)CC[C@@H]12 (stereo partly shown)	µM	11.6
C[C@]12CC[C@@H](O)C[C@@H]1CC[C@@H]1[C@@H]2CC[C@]2(C)C(=NN=C3C(=O)Nc4ccc(Br)cc43)CC[C@@H]12	µM	8.08
C[C@]12CC[C@H](O)CC1CC[C@@H]1[C@@H]2CC[C@]2(C)C(=NN=C3C(=O)Nc4cc(F)ccc43)CC[C@@H]12 (stereo partly shown)	µM	6.85

In the following, a different compound is considered.
Give a short answer stating reported IC50 for `C[C@]12CC[C@@H](O)C[C@@H]1CC[C@@H]1[C@@H]2CC[C@]2(C)C(=NN=C3C(=O)Nc4ccc(I)cc43)CC[C@@H]12` .
19.7

---

- Test system: A875 (Human melanoma cell line)
- measurement protocol: MTT in vitro cytotoxicity, A875
- run conditions: A875, 72 h, read-out: In vitro cytotoxicity IC50
observable: pIC50
Give only the number. pIC50 is defined as minus log10 of concentration in molar units.

Consider the reported pIC50 for these compounds:
compound	observable	number
C[C@]12CC[C@H](O)CC1CC[C@@H]1[C@@H]2CC[C@]2(C)C(=NN=C3C(=O)Nc4ccc(F)cc43)CC[C@@H]12 (stereo partly shown)	pIC50	5.07
C[C@]12CC[C@@H](O)C[C@@H]1CC[C@@H]1[C@@H]2CC[C@]2(C)C(=NN=C3C(=O)Nc4ccccc43)CC[C@@H]12	pIC50	4.66

Give a short answer stating reported pIC50 for `C[C@]12CC[C@@H](O)C[C@@H]1CC[C@@H]1[C@@H]2CC[C@]2(C)C(=NN=C3C(=O)Nc4ccc(F)cc43)CC[C@@H]12` .
4.37

---

Catalogue of pIC50 readings, one per entry.
- Tested on: A875 (Human melanoma cell line)
- measurement protocol: MTT in vitro cytotoxicity, A875
- run conditions: A875, 72 h, read-out: In vitro cytotoxicity IC50
Give only the number. pIC50 is defined as minus log10 of concentration in molar units.

Consider the reported pIC50 for these compounds:
compound	pIC50
Cc1ccc2c(c1)C(=NN=C1CC[C@H]3[C@@H]4CCC5C[C@@H](O)CC[C@]5(C)[C@H]4CC[C@]13C)C(=O)N2 (stereo partly shown) [3f]	5.22
C[C@]12CC[C@@H](O)C[C@@H]1CC[C@@H]1[C@@H]2CC[C@]2(C)C(=NN=C3C(=O)Nc4ccc(Cl)cc43)CC[C@@H]12 [6c]	5.06
Cc1ccc2c(c1)C(=NN=C1CC[C@H]3[C@@H]4CC[C@H]5C[C@H](O)CC[C@]5(C)[C@H]4CC[C@]13C)C(=O)N2 [6f]	5.08

In the following, a different compound is considered.
Give a short answer stating reported pIC50 for C[C@]12CC[C@@H](O)C[C@@H]1CC[C@@H]1[C@@H]2CC[C@]2(C)C(=NN=C3C(=O)Nc4cc(F)ccc43)CC[C@@H]12 [6h] .
5.11

---

- measurement protocol: in vitro
- run conditions: human
Catalogue of IC50 readings, one per entry.
Give the value in µM but do not write µM after it.

compound	units text	IC50
C[C@]12CC[C@H](O)CC1CC[C@@H]1[C@@H]2CC[C@]2(C)C(=NN=C3C(=O)Nc4ccc([N+](=O)[O-])cc43)CC[C@@H]12 (stereo partly drawn) [3g]	µM	33.4
C[C@]12CC[C@H](O)CC1CC[C@@H]1[C@@H]2CC[C@]2(C)C(=NN=C3C(=O)Nc4ccc(Cl)cc43)CC[C@@H]12 (stereo partly drawn) [3c]	µM	5.01
C[C@]12CC[C@@H](O)C[C@@H]1CC[C@@H]1[C@@H]2CC[C@]2(C)C(=NN=C3C(=O)Nc4ccc([N+](=O)[O-])cc43)CC[C@@H]12 [6g]	µM	11.2

Give a short answer stating reported IC50 for C[C@]12CC[C@@H](O)C[C@@H]1CC[C@@H]1[C@@H]2CC[C@]2(C)C(=NN=C3C(=O)Nc4ccccc43)CC[C@@H]12 [6a] .
8.29

Give a short answer stating reported IC50 for Cc1ccc2c(c1)C(=NN=C1CC[C@H]3[C@@H]4CCC5C[C@@H](O)CC[C@]5(C)[C@H]4CC[C@]13C)C(=O)N2 (stereo partly drawn) [3f] .
6.08

Give a short answer stating reported IC50 for C[C@]12CC[C@H](O)CC1CC[C@@H]1[C@@H]2CC[C@]2(C)C(=NN=C3C(=O)Nc4ccc(F)cc43)CC[C@@H]12 (stereo partly drawn) [3b] .
5.49

Give a short answer stating reported IC50 for C[C@]12CC[C@H](O)CC1CC[C@@H]1[C@@H]2CC[C@]2(C)C(=NN=C3C(=O)Nc4ccccc43)CC[C@@H]12 (stereo partly drawn) [3a] .
5.65

Give a short answer stating reported IC50 for C[C@]12CC[C@@H](O)C[C@@H]1CC[C@@H]1[C@@H]2CC[C@]2(C)C(=NN=C3C(=O)Nc4ccc(I)cc43)CC[C@@H]12 [6e] .
18.5

Give a short answer stating reported IC50 for Cc1ccc2c(c1)C(=NN=C1CC[C@H]3[C@@H]4CC[C@H]5C[C@H](O)CC[C@]5(C)[C@H]4CC[C@]13C)C(=O)N2 [6f] .
12.5

Give a short answer stating reported IC50 for C[C@]12CC[C@H](O)CC1CC[C@@H]1[C@@H]2CC[C@]2(C)C(=NN=C3C(=O)Nc4ccc(I)cc43)CC[C@@H]12 (stereo partly drawn) [3e] .
14

Give a short answer stating reported IC50 for C[C@]12CC[C@H](O)CC1CC[C@@H]1[C@@H]2CC[C@]2(C)C(=NN=C3C(=O)Nc4ccc(Br)cc43)CC[C@@H]12 (stereo partly drawn) [3d] .
14.1

---

- System: A875 (Human melanoma cell line)
- measurement protocol: MTT in vitro cytotoxicity, A875
- run conditions: A875, 72 h, read-out: In vitro cytotoxicity IC50
Catalogue of IC50 readings, one per entry.
Give the value in µM but do not write µM after it.

Consider the reported IC50 for these compounds:
compound	IC50 [µM]
C[C@]12CC[C@H](O)CC1CC[C@@H]1[C@@H]2CC[C@]2(C)C(=NN=C3C(=O)Nc4ccc(Cl)cc43)CC[C@@H]12 (stereo partly shown)	7.92
C[C@]12CC[C@H](O)CC1CC[C@@H]1[C@@H]2CC[C@]2(C)C(=NN=C3C(=O)Nc4ccccc43)CC[C@@H]12 (stereo partly shown)	9.51
O=c1[nH]cc(F)c(=O)[nH]1 [5-FU, 5-Fluorouracil, reference compound]	65.3
C[C@]12CC[C@H](O)CC1CC[C@@H]1[C@@H]2CC[C@]2(C)C(=NN=C3C(=O)Nc4ccc(I)cc43)CC[C@@H]12 (stereo partly shown)	23.8
C[C@]12CC[C@@H](O)C[C@@H]1CC[C@@H]1[C@@H]2CC[C@]2(C)C(=NN=C3C(=O)Nc4ccc([N+](=O)[O-])cc43)CC[C@@H]12	3.85

Give a short answer stating reported IC50 for C[C@]12CC[C@H](O)CC1CC[C@@H]1[C@@H]2CC[C@]2(C)C(=NN=C3C(=O)Nc4ccc([N+](=O)[O-])cc43)CC[C@@H]12 (stereo partly shown) .
26.2

Give a short answer stating reported IC50 for C[C@]12CC[C@H](O)C[C@@H]1CC[C@@H]1[C@@H]2CC[C@]2(C)C(=O)CC[C@@H]12 [Epiandrosterone] .
63.6

---

Catalogue of IC50 readings, one per entry.
- System: HepG2 (Human hepatocellular liver carcinoma cell line)
- measurement protocol: MTT in vitro cytotoxicity, HepG2
- run conditions: HepG2, 72 h, read-out: In vitro cytotoxicity IC50
Give the value in µM but do not write µM after it.

Consider the reported IC50 for these compounds:
compound	observable	number
O=c1[nH]cc(F)c(=O)[nH]1 [5-FU, 5-Fluorouracil, reference compound]	IC50	63.2
C[C@]12CC[C@@H](O)C[C@@H]1CC[C@@H]1[C@@H]2CC[C@]2(C)C(=NN=C3C(=O)Nc4ccccc43)CC[C@@H]12 [6a]	IC50	20.4
C[C@]12CC[C@@H](O)C[C@@H]1CC[C@@H]1[C@@H]2CC[C@]2(C)C(=NN=C3C(=O)Nc4cc(F)ccc43)CC[C@@H]12 [6h]	IC50	5.41
C[C@]12CC[C@@H](O)C[C@@H]1CC[C@@H]1[C@@H]2CC[C@]2(C)C(=NN=C3C(=O)Nc4ccc(Br)cc43)CC[C@@H]12 [6d]	IC50	6.1
C[C@]12CC[C@H](O)CC1CC[C@@H]1[C@@H]2CC[C@]2(C)C(=NN=C3C(=O)Nc4ccc(Br)cc43)CC[C@@H]12 (stereo partly shown) [3d]	IC50	8.29
C[C@]12CC[C@H](O)CC1CC[C@@H]1[C@@H]2CC[C@]2(C)C(=NN=C3C(=O)Nc4ccccc43)CC[C@@H]12 (stereo partly shown) [3a]	IC50	6.72
C[C@]12CC[C@H](O)CC1CC[C@@H]1[C@@H]2CC[C@]2(C)C(=NN=C3C(=O)Nc4ccc(F)cc43)CC[C@@H]12 (stereo partly shown) [3b]	IC50	6.12
C[C@]12CC[C@H](O)CC1CC[C@@H]1[C@@H]2CC[C@]2(C)C(=NN=C3C(=O)Nc4cc(F)ccc43)CC[C@@H]12 (stereo partly shown) [3h]	IC50	4.85
Cc1ccc2c(c1)C(=NN=C1CC[C@H]3[C@@H]4CC[C@H]5C[C@H](O)CC[C@]5(C)[C@H]4CC[C@]13C)C(=O)N2 [6f]	IC50	4.85
C[C@]12CC[C@@H](O)C[C@@H]1CC[C@@H]1[C@@H]2CC[C@]2(C)C(=NN=C3C(=O)Nc4ccc(Cl)cc43)CC[C@@H]12 [6c]	IC50	4.84

Give a short answer stating reported IC50 for C[C@]12CC[C@H](O)C[C@@H]1CC[C@@H]1[C@@H]2CC[C@]2(C)C(=O)CC[C@@H]12 [Epiandrosterone] .
36.7

Give a short answer stating reported IC50 for Cc1ccc2c(c1)C(=NN=C1CC[C@H]3[C@@H]4CCC5C[C@@H](O)CC[C@]5(C)[C@H]4CC[C@]13C)C(=O)N2 (stereo partly shown) [3f] .
6.91

Give a short answer stating reported IC50 for C[C@]12CC[C@@H](O)C[C@@H]1CC[C@@H]1[C@@H]2CC[C@]2(C)C(=NN=C3C(=O)Nc4ccc(I)cc43)CC[C@@H]12 [6e] .
8.99

Give a short answer stating reported IC50 for C[C@]12CC[C@@H](O)C[C@@H]1CC[C@@H]1[C@@H]2CC[C@]2(C)C(=NN=C3C(=O)Nc4ccc([N+](=O)[O-])cc43)CC[C@@H]12 [6g] .
4.31

Give a short answer stating reported IC50 for C[C@]12CC[C@H](O)CC1CC[C@@H]1[C@@H]2CC[C@]2(C)C(=NN=C3C(=O)Nc4ccc([N+](=O)[O-])cc43)CC[C@@H]12 (stereo partly shown) [3g] .
19.4

Give a short answer stating reported IC50 for C[C@]12CC[C@H](O)CC1CC[C@@H]1[C@@H]2CC[C@]2(C)C(=NN=C3C(=O)Nc4ccc(I)cc43)CC[C@@H]12 (stereo partly shown) [3e] .
18.6

Give a short answer stating reported IC50 for C[C@]12CC[C@@H](O)C[C@@H]1CC[C@@H]1[C@@H]2CC[C@]2(C)C(=NN=C3C(=O)Nc4ccc(F)cc43)CC[C@@H]12 [6b] .
32.3

Give a short answer stating reported IC50 for C[C@]12CC[C@H](O)CC1CC[C@@H]1[C@@H]2CC[C@]2(C)C(=NN=C3C(=O)Nc4ccc(Cl)cc43)CC[C@@H]12 (stereo partly shown) [3c] .
2.39
